Target: Mu-type opioid receptor (Homo sapiens)
Sequence (P35372 whole entry): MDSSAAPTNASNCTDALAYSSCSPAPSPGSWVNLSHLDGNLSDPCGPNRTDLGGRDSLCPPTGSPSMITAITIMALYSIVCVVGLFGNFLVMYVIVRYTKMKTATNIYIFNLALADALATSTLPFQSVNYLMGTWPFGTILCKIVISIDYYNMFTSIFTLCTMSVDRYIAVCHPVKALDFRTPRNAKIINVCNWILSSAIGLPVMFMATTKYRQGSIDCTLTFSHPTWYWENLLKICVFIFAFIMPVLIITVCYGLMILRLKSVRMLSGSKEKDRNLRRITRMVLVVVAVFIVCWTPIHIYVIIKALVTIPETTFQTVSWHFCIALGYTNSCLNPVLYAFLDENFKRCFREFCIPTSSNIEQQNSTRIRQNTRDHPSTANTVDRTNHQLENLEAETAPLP
Assay: Agonist activity at human MOR expressed in HEK293T cells assessed as inhibition of forskolin-stimulated cAMP accumulation incubated for 30 mins by Glo-sensor cAMP assay
Assay type: functional, cell-based
Could you mark each record T if its EC50 falls strictly under 100 nM, and F if it equals or exceeds it?

# STRUCTURE_NOTATION, MEASURED_TARGET, CLASS_NAME
measured = [
    ("CC[C@@H]1CN2CCc3c([nH]c4cccc(C)c34)[C@@H]2C[C@@H]1/C(=C\\OC)C(=O)OC", "Mu-type opioid receptor (Homo sapiens)", "T"),
    ("CC[C@@H]1CN2CC[C@@]3(O)C(=Nc4ccc(-c5ccccc5)c(OC)c43)[C@@H]2C[C@@H]1/C(=C\\OC)C(=O)OC", "Mu-type opioid receptor (Homo sapiens)", "F"),
    ("CC[C@@H]1CN2CC[C@@]3(O)C(=Nc4ccc(-c5ccoc5)c(OC)c43)[C@@H]2C[C@@H]1/C(=C\\OC)C(=O)OC", "Mu-type opioid receptor (Homo sapiens)", "F"),
    ("CC[C@@H]1CN2CC[C@@]3(O)C(=Nc4cccc(-c5ccccc5)c43)[C@@H]2C[C@@H]1/C(=C\\OC)C(=O)OC", "Mu-type opioid receptor (Homo sapiens)", "T"),
    ("CC[C@@H]1CN2CCc3c([nH]c4ccc(-c5ccccc5)c(OC)c34)[C@@H]2C[C@@H]1/C(=C\\OC)C(=O)OC", "Mu-type opioid receptor (Homo sapiens)", "F"),
]

**Query** Please determine if `CC[C@@H]1CN2CC[C@@]3(O)C(=Nc4c(-c5ccccc5)ccc(OC)c43)[C@@H]2C[C@@H]1/C(=C\OC)C(=O)OC` is below 100 nM in terms of EC50.
**Result** F

**Query** Please indicate whether the reported EC50 of `CC[C@@H]1CN2CC[C@@]3(O)C(=Nc4ccc(C)c(OC)c43)[C@@H]2C[C@@H]1/C(=C\OC)C(=O)OC` is strictly below 100 nM.
**Result** T

**Query** Check if EC50 falls below 100 nM for `CC[C@@H]1CN2CCc3c([nH]c4ccc(-c5ccoc5)c(OC)c34)[C@@H]2C[C@@H]1/C(=C\OC)C(=O)OC` .
**Result** T

**Query** In plain terms, does `CC[C@@H]1CN2CCc3c([nH]c4cccc(-c5ccccc5)c34)[C@@H]2C[C@@H]1/C(=C\OC)C(=O)OC` come in under 100 nM for EC50?
**Result** T

**Query** Is EC50 of `CC[C@@H]1CN2CCc3c([nH]c4c(C)ccc(OC)c34)[C@@H]2C[C@@H]1/C(=C\OC)C(=O)OC` strictly below 100 nM?
**Result** T
